Some molecules, each annotated with its measured CC50.
Test: Cytotoxicity (CC50) in TZM-bl cells
Type: cell-based
Conditions: human; TZM-bl cells (Table 3); read-out: CC50

# molecule, readout-value
rows = [
    ("CC(=O)NC(CCN1CCC(n2c(C)nnc2C(C)C)CC1)c1cccs1 (centres unmarked)", "> 100 µg/mL"),
    ("Cc1nnc(C(C)C)n1C1CC2CCC(C1)N2CC[C@H](NC(=O)C1CCCC1)c1ccc(F)s1 (some centres unmarked)", "> 200 µg/mL"),
]

Value of CC50 reported for the molecule CC(=O)N[C@@H](CCN1C2CCC1CC(n1c(C)nc3c1CCN(C(=O)C1CC1)C3)C2)c1ccc(F)s1 (some centres unmarked) is > 200 µg/mL

Notebook: Cc1nnc(C(C)C)n1C1CCN(CC[C@H](NC(=O)C2CCCCC2)c2cccnc2)CC1 , CC50 read as > 100 µg/mL

Measured CC50, CCC(=O)N1CCc2c(nc(C)n2C2CC3CCC(C2)N3CC[C@H](NC(C)=O)c2ccc(Cl)s2)C1 (some centres unmarked) : > 200 µg/mL

Summary for this molecule, Cc1nnc(C(C)C)n1C1CCN(CC[C@H](NC(=O)C2CCCC2)c2ccsc2)CC1 : CC50 is > 200 µg/mL

Cc1nnc(C(C)C)n1C1CC2CCC(C1)N2CC[C@H](NC(=O)C1CCC(F)(F)CC1)c1cccs1 (some centres unmarked) yielded CC50 of > 200 µg/mL

Input Cc1nnc(C(C)C)n1C1CCN(CC[C@H](NC(=O)C2CCCCC2)c2ccsc2)CC1 . Output CC50: > 200 µg/mL

Just for reference, patent US10167299B2 is where these values come from.
